Settings: 308.15 K; 101.33 kPa; Liquid
Answer each item with its documented mass density.
Please state the figure in kg/m3; there is no need to write the unit.

Return reported mass density; argument: COC(C)=O [methyl ethanoate] 915.22

Record request: mass density value, item CCCCOC(C)=O [butyl ethanoate] 865.43

For CC(O)CO (configuration not stated) , what is its reported mass density? 1025.4

Any idea what its mass density is? The compound is OCCOCCO 1106.22

// query mass density value for entry CCOC(C)=O [ethyl acetate] 882.5

Field request: mass density | item: OCCOCCOCCO 1111.96

# lookup: mass density of CC(=O)OCCC(C)C [3-methylbutyl ethanoate] 855.85

---

Conditions: 298.15 K; 101.33 kPa; Liquid
Rule: mass density of 1000 kg/m3 or more gives satisfied; anything lower gives not satisfied.

For this molecule, is measured mass density 1000 kg/m3 or higher? CCOC(C)=O [ethyl acetate] not satisfied

Given CC(O)CO (configuration not stated) , state whether its mass density is at least 1000 kg/m3. satisfied

Textbook exercise: given the entry OCCOCCO , state whether its mass density is greater than or equal to 1000 kg/m3. satisfied

Determine whether measured mass density meets or exceeds 1000 kg/m3 for CC(=O)OCCC(C)C [3-methylbutyl ethanoate] not satisfied

Check the entry OCCOCCOCCO : does mass density equal or exceed 1000 kg/m3? satisfied

Determine whether this molecule has mass density no lower than 1000 kg/m3: COC(C)=O [methyl ethanoate] not satisfied

State whether the measured mass density reaches 1000 kg/m3, counting equality as reaching it, for CCCCOC(C)=O [butyl ethanoate] not satisfied

---

Can you tell me viscosity for the items I'm about to list?
Conditions: 298.15 K; 101.33 kPa; Liquid
Field: numeric (mPa·s). Do not append units.

# viscosity lookup, item CC(O)CO (stereo not drawn) 43.43

Would you mind telling me what viscosity value was observed for CCOC(C)=O [ethyl acetate] ? 0.428

Given OCCO , state its recorded viscosity. 14.82

I'd like to know its viscosity. The compound in question is OCCOCCO 30.01

Entry under review: CCCCOC(C)=O [butyl ethanoate] . Reported viscosity? 0.674

Requested read-out: viscosity. Entry: CC(=O)OCCC(C)C [3-methylbutyl ethanoate] 0.781

# get_value(readout='viscosity', item= COC(C)=O [methyl ethanoate] ) 0.384

Given the entry OCCOCCOCCO , report its measured viscosity. 34.4

---

What speed of sound was measured for each of the following?
Details: 308.15 K; 101.33 kPa; Liquid
Form entry: value (m/s) — number only.

Can you look up the measured speed of sound of COC(C)=O [methyl ethanoate] for me? 1103

I would be grateful if you could share the reported speed of sound for CC(=O)OCCC(C)C [3-methylbutyl ethanoate] . 1154

Field request: speed of sound | item: CCOC(C)=O [ethyl acetate] 1095

Field request: speed of sound | item: CC(O)CO (stereo not drawn) [1,2-propanediol] 1454

Which measured speed of sound value corresponds to OCCOCCO [diethylene glycol] ? 1550

Please give the measured speed of sound for this molecule: OCCOCCOCCO [triethylene glycol] 1586

I am curious: what speed of sound value has been reported for OCCO [1,2-ethanediol] ? 1635

Tell me the measured speed of sound of CCCCOC(C)=O [butyl ethanoate] , please. 1150

Provenance of the data: the NIST ThermoML archive (doi:10.1021/je0340248)
